The measured values listed here are drawn from ChEMBL document CHEMBL3797054.

Measured logD of individual entries
- method: physchem
- condition-label: buffer, pH 7.4
Note: the reply should be a number with no unit written.

[[record]]
mol = "CN(C)C(=O)c1cc(CN2CCOc3ccc(F)cc32)c2oc(N3CCOCC3)cc(=O)c2c1"
assay_value = 1.9

[[record]]
mol = "C[C@@H]1CN(c2cc(=O)c3cc(C(=O)N(C)C)cc(CN4CCOc5c(F)cc(F)cc54)c3o2)CCO1"
assay_value = 2.3

[[record]]
mol = "COCCN(Cc1cc(C(=O)N(C)C)cc2c(=O)cc(N3CCO[C@H](C)C3)oc12)c1cc(F)cc(F)c1"
assay_value = 2.2


Kindly consider the entry below.
# get_value(readout='logD', item= CN(C)C(=O)c1cc(CN2CCOc3c(F)cccc32)c2oc(N3CCOCC3)cc(=O)c2c1 ) 1.7

* * *

- method: Intrinsic clearance in human hepatocytes assessed per million cells
- Format: ADME, cell-based, Hepatocyte
- condition-label: read-out: CLH
Measured hepatocyte CLint of individual entries

Please review the following examples before continuing.
[[record]]
mol = "C[C@@H]1CN(c2cc(=O)c3cc(C(=O)N(C)C)cc(CN4CCOc5ccc(F)cc54)c3o2)CCO1"
measurement_kind = "hepatocyte CLint"
assay_value = "15 µL/min/1e6 cells"

[[record]]
mol = "CN(C)C(=O)c1cc(CN(CC#N)c2cc(F)cc(F)c2)c2oc(N3CCOCC3)cc(=O)c2c1"
measurement_kind = "hepatocyte CLint"
assay_value = "< 3 µL/min/1e6 cells"

[[record]]
mol = "C[C@@H]1CN(c2cc(=O)c3cc(C(=O)N(C)C)cc(CN(C)c4cc(F)cc(F)c4)c3o2)CCO1"
measurement_kind = "hepatocyte CLint"
assay_value = "5 µL/min/1e6 cells"


Kindly consider the entry below.
# get_value(readout='hepatocyte CLint', item= COCCN(Cc1cc(C(=O)N(C)C)cc2c(=O)cc(N3CCO[C@H](C)C3)oc12)c1cc(F)cc(F)c1 ) 14 µL/min/1e6 cells
